These entries and their values trace back to patent US20240270821A1.

Target: hGLP-1R (Homo sapiens, UniProt P43220)
Sequence (P43220 24-463): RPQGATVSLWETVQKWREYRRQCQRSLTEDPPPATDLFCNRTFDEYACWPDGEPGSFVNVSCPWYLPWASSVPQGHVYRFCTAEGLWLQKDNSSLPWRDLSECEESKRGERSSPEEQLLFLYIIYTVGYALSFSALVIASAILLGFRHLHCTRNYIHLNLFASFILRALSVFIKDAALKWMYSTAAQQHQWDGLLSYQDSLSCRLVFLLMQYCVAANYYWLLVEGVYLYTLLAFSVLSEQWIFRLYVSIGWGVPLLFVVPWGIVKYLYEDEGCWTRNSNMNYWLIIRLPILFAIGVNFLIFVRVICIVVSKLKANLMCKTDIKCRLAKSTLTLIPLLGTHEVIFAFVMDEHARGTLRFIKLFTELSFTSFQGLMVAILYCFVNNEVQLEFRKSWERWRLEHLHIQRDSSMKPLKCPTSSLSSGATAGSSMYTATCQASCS
Experiment: cell-based or functional assay
measured.endpoint: Relative cAMP EC50 (nM)

[[record]]
binder = "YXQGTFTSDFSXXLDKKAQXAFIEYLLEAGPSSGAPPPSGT (Aib, Orn, αMeL, D-Ala; acylated lysine; amide; synthetic construct; SITE 2: note = 2-Aminoisobutyric Acid; SITE 12: note = L-ornithine; SITE 13: note = alpha-methyl-leucine; SITE 17: note = Lysine is chemically modified through conjugation of the epsilon-amino group of the Lysine side chain with (gamma-Glu)3-CO-(CH2)16-CO2H; SITE 20: note = 2-Am) [Example 205]"
measured_endpoint = "Relative cAMP EC50"
reported_result = 2.71

[[record]]
binder = "YXQGTFTSDXSQXLDXKAQXAFIQXLIEXGPSSGEPPPSGGGE (not fully specified; non-natural residues, C18 diacid acylation, C-terminal amide; synthetic construct; SITE 2: note = 2-Aminoisobutyric Acid; SITE 10: note = 3-(4-Pyridyl)-L-alanine; SITE 13: note = alpha-methyl-leucine; SITE 16: note = L-ornithine; SITE 17: note = Lysine is chemically modified through conjugation of the epsilon-amino group of the Lysine side chain with D-Glutami) [Example 1131]"
measured_endpoint = "Relative cAMP EC50"
reported_result = 0.483

[[record]]
binder = "YXQGTFTSDXSQXLDXKAQXAFIEYLIAGGPSSGEPPPSGS (not fully specified; synthetic construct; SITE 2: note = 2-Aminoisobutyric Acid; SITE 10: note = 3-(4-Pyridyl)-L-alanine; SITE 13: note = alpha-methyl-leucine; SITE 16: note = L-ornithine; SITE 17: note = Lysine is chemically modified through conjugation of the epsilon-amino group of the Lysine side chain with (gamma-Gl)) [Example 1007]"
measured_endpoint = "Relative cAMP EC50"
reported_result = 0.668

[[record]]
binder = "YXQGTFTSDXSXXLDKKAQXAFIEXLIAGGPSSGEPPPSGS (Aib, 4Pal, Orn, αMeL, Me4Pal, αMeY; γGlu2-C18 diacid Lys; amide; synthetic construct; SITE 2: note = 2-Aminoisobutyric Acid; SITE 10: note = 3-(4-Pyridyl)-L-alanine; SITE 12: note = L-ornithine; SITE 13: note = alpha-methyl-leucine; SITE 17: note = Lysine is chemically modified through conjugation of the epsilon-amino group of the Lysine side chain with (gamma-Gl)) [Example 1014]"
measured_endpoint = "Relative cAMP EC50"
reported_result = 0.718

[[record]]
binder = "YXQGTFTSDYXIXLDKKAQXAFIEYLIEGGPSSGAPPPS (synthetic construct; SITE 2: note = 2-Aminoisobutyric Acid; SITE 11: note = alpha-methyl-L-serine; SITE 13: note = alpha-methyl-leucine; SITE 17: note = Lysine is chemically modified through conjugation of the epsilon-amino group of the Lysine side chain with (2-[2-(2-Amino-ethoxy)-ethoxy]-acetyl)2-) [Example 382]"
measured_endpoint = "Relative cAMP EC50"
reported_result = 0.291

